# Test system: Enterococcus faecium
# MEASUREMENT_PROTOCOL: Antibacterial activity against glycopeptide-resistant Enterococcus faecium Efm-HS-0649 vanA after 24 hrs by broth microdilution method
# Assay type: functional
# CONDITION_NOTES: Efm-HS-0649, 24 h
Measured MIC values are reported for all entries that follow.
Provide only the numeric value, understood in µg/mL.

STRUCTURE_SMILES_STRING	MIC [µg/mL]
CN[C@H](CC(C)C)C(=O)N[C@H]1C(=O)N[C@@H](CC(N)=O)C(=O)N[C@H]2C(=O)N[C@H]3C(=O)N[C@H](C(=O)N[C@H](C(=O)O)c4cc(O)c(CNCCCNC(=O)[C@H](O)[C@@H](O)[C@H](O)[C@H](O)CO)c(O)c4-c4cc3ccc4O)[C@H](O)c3ccc(c(Cl)c3)Oc3cc2cc(c3O[C@@H]2O[C@H](CO)[C@@H](O)[C@H](O)[C@H]2O[C@H]2C[C@](C)(NCc3ccc(-c4ccc(Cl)cc4)cc3)[C@H](O)[C@H](C)O2)Oc2ccc(cc2Cl)[C@H]1O	4

We next turn to a different compound, shown below.
Give the value of MIC reported for the following: CN[C@H](CC(C)C)C(=O)N[C@H]1C(=O)N[C@@H](CC(N)=O)C(=O)N[C@H]2C(=O)N[C@H]3C(=O)N[C@H](C(=O)N[C@H](C(=O)O)c4cc(O)c(CNCCO)c(O)c4-c4cc3ccc4O)[C@H](O)c3ccc(c(Cl)c3)Oc3cc2cc(c3O[C@@H]2O[C@H](CO)[C@@H](O)[C@H](O)[C@H]2O[C@H]2C[C@](C)(NCc3ccc(-c4ccc(C(F)(F)F)cc4)cc3)[C@H](O)[C@H](C)O2)Oc2ccc(cc2Cl)[C@H]1O
1

Values compiled from ChEMBL document CHEMBL4052823.
